Origin of the recorded values: ChEMBL document CHEMBL2176967

- target_of_assay: Glutamate carboxypeptidase 2 (Homo sapiens, UniProt Q04609)
- Sequence (Q04609 whole entry): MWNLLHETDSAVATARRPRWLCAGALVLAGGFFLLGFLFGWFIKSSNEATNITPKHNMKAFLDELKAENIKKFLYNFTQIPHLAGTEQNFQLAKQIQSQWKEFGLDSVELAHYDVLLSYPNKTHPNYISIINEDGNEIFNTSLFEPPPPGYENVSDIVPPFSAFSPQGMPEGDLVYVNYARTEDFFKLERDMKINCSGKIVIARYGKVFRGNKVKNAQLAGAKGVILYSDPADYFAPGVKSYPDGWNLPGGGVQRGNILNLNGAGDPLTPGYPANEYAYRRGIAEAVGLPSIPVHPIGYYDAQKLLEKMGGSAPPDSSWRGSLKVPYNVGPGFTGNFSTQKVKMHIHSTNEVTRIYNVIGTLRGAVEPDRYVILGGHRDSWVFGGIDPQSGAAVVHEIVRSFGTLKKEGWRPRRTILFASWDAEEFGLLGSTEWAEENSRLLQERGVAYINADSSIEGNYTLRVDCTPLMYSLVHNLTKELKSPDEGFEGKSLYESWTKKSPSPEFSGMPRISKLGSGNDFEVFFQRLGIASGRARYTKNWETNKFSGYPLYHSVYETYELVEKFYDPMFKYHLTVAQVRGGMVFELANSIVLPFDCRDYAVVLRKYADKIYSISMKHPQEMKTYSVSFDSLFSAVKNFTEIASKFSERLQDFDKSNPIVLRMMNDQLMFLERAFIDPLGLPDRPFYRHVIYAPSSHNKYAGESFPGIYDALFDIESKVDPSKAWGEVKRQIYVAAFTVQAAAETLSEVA
- assay_procedure: biochemical
- Description: Inhibition of NAALADase activity in human LNCaP cell membranes assessed as inhibition of [3H]NAG conversion to [3H]glutamate after 30 mins by liquid scintillation counting
value_kind: IC50 (nM)

molecule	target_of_assay	value_kind	display_unit	observed_result
O=C(O)[C@@H](C[C@@H](F)C(=O)O)CP(=O)(O)O	Glutamate carboxypeptidase 2 (Homo sapiens, UniProt Q04609)	IC50	nM	89.4
O=C(O)[C@H](C[C@@H](F)C(=O)O)CP(=O)(O)O	Glutamate carboxypeptidase 2 (Homo sapiens, UniProt Q04609)	IC50	nM	8.1
O=C(O)C(F)CC(CP(=O)(O)O)C(=O)O (racemic)	Glutamate carboxypeptidase 2 (Homo sapiens, UniProt Q04609)	IC50	nM	6.8
O=C(O)[C@@H](C[C@H](F)C(=O)O)CP(=O)(O)O	Glutamate carboxypeptidase 2 (Homo sapiens, UniProt Q04609)	IC50	nM	55.9
O=C(O)[C@H](C[C@H](F)C(=O)O)CP(=O)(O)O	Glutamate carboxypeptidase 2 (Homo sapiens, UniProt Q04609)	IC50	nM	3.1

====

- target_of_assay: Glutamate carboxypeptidase 2 (Homo sapiens, UniProt Q04609)
- assay_procedure: Binding affinity to NAALADase
Item-by-item account of Ki
value_kind: Ki (nM)

structure_smiles	observed_result
O=C(O)CC[C@H](NC(=O)N[C@@H](CCC(=O)O)C(=O)O)C(=O)O	8
O=C(N[C@@H](C[C@@H](Cc1ccccc1)C(=O)O)C(=O)O)N[C@@H](C[C@@H](Cc1ccccc1)C(=O)O)C(=O)O	392
C[C@@H](C[C@H](NC(=O)N[C@@H](C[C@H](C)C(=O)O)C(=O)O)C(=O)O)C(=O)O	1110
C[C@H](C[C@H](NC(=O)N[C@@H](C[C@@H](C)C(=O)O)C(=O)O)C(=O)O)C(=O)O	1280

====

- target_of_assay: Glutamate carboxypeptidase 2 (Homo sapiens)
- assay_procedure: biochemical
pKi: −log10 of the molar value.

compound	pKi
O=C(O)[C@H](C[C@@H](F)C(=O)O)CP(=O)(O)O	8.51
O=C(O)[C@@H](C[C@@H](F)C(=O)O)CP(=O)(O)O	7.44
O=C(O)[C@@H](C[C@H](F)C(=O)O)CP(=O)(O)O	7.66
O=C(O)[C@H](C[C@H](F)C(=O)O)CP(=O)(O)O	8.85
O=C(O)C(F)CC(CP(=O)(O)O)C(=O)O (racemic)	8.59
